Target: SARS-COV-2 RBD-MMH (SARS-CoV-2)
Assay: SPR 37C, run with dissociation at pH 5.0
t½ class ranges: low: < 3 min; moderate: ≥ 3 min and < 30 min; high: ≥ 30 min

Which band does mAb15160 (antibody, V domains shown) VH: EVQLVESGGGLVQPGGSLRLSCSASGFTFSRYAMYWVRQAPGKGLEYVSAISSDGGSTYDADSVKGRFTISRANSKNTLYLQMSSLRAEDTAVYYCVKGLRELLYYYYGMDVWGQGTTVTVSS VL: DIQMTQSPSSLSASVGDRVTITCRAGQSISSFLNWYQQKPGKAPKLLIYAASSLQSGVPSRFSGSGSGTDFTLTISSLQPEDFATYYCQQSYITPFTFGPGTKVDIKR fall in?
moderate

Which band does mAb15166 (antibody, V domains shown) VH: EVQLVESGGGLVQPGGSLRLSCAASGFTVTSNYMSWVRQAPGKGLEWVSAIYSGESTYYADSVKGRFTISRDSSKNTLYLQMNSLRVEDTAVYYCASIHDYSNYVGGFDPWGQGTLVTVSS VL: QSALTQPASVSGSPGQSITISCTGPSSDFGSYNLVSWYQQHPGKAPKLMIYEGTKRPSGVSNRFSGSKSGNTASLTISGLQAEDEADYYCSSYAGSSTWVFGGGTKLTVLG fall in?
low

Which band does mAb15158 (antibody, V domains shown) VH: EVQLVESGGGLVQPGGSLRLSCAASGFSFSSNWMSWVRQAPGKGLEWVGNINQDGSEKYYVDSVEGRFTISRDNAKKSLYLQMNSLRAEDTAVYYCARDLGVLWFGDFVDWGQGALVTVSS VL: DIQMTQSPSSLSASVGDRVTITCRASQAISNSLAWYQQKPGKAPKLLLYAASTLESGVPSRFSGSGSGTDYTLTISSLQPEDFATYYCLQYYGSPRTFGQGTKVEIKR fall in?
high

Which band does mAb15151 (antibody, V domains shown) VH: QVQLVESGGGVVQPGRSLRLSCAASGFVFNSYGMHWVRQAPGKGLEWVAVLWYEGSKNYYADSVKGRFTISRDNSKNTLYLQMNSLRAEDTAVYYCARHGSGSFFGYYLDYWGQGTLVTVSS VL: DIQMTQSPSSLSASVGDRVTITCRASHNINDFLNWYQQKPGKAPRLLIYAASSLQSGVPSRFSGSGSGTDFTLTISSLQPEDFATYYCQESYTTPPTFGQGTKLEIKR fall in?
low

Which band does mAb15162 (antibody, V domains shown) VH: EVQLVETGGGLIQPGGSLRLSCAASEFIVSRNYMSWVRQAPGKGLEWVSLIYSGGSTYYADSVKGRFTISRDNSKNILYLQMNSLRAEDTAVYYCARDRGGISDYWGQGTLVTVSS VL: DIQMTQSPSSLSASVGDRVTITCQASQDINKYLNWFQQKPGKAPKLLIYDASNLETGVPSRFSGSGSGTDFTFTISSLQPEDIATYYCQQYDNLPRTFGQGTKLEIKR fall in?
low

Which band does mAb15150 (antibody, V domains shown) VH: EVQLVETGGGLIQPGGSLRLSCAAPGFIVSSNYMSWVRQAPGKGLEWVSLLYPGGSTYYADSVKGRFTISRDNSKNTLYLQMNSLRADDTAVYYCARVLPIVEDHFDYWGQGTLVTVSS VL: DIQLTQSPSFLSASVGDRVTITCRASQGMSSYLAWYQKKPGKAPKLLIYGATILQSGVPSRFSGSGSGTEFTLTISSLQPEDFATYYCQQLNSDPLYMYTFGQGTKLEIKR fall in?
high

Which band does mAb15164 (antibody, V domains shown) VH: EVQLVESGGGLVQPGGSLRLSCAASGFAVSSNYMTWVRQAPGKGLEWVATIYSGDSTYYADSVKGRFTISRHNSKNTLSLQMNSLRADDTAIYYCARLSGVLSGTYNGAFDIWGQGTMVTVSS VL: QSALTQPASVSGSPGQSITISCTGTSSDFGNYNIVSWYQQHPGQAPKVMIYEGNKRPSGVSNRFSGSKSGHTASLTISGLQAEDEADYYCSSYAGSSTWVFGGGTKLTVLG fall in?
moderate

Which band does mAb15157 (antibody, V domains shown) VH: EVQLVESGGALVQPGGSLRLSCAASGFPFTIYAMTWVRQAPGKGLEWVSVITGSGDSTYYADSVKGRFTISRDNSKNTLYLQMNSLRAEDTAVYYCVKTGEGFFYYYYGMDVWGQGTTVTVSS VL: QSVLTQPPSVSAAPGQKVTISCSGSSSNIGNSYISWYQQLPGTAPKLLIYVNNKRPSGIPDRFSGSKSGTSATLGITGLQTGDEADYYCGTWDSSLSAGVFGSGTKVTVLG fall in?
low

Which band does mAb15163 (antibody, V domains shown) VH: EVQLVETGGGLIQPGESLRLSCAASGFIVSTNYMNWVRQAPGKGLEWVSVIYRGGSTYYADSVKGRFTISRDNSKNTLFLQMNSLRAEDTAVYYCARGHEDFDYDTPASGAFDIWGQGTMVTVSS VL: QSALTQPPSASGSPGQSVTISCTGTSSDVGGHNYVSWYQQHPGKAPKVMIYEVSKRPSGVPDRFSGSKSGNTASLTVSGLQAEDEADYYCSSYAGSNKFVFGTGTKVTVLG fall in?
moderate

Which band does mAb15159 (antibody, V domains shown) VH: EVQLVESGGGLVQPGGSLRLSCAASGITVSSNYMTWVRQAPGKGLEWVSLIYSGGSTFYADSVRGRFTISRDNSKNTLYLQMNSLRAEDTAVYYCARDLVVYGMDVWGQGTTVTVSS VL: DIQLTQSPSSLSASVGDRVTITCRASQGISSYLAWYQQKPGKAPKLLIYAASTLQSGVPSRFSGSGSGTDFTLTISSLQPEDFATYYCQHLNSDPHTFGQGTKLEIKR fall in?
moderate

Which band does mAb15170 (antibody, V domains shown) VH: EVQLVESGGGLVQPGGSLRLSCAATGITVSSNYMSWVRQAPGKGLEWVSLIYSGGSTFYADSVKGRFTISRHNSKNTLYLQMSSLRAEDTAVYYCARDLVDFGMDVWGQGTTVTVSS VL: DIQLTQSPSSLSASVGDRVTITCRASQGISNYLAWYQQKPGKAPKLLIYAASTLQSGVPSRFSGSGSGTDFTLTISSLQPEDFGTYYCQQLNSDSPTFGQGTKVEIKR fall in?
high
